Below is a list of entries, each paired with its recorded Primary assay EC50 (cAMP), n2 value.
- Target: GLP-1 receptor (GLP-1R), primary cAMP assay (human, UniProt P43220 24-463)
- Assay method text: cell-based or functional assay
Starred links: 1 amine or outer side, 2 acyl side, 3 side chain; linkers in the order of their positions; H or OH if unused. Non-standard residues stand in square brackets, D forms with d. Groups on a side chain read outwards from the residue. Primed or numbered codes have the meaning given here. No end group written: not given here. *: point of attachment. γGlu = O=C(O)[C@H](CCC(=O)[*:2])N[*:1]; Palmitoyl = CCCCCCCCCCCCCCCC(=O)*; αMeF = C[C@](N)(Cc1ccccc1)C(=O)O; αMeK = C[C@](N)(CCCCN)C(=O)O; Lauroyl = CCCCCCCCCCCC(=O)*; PEG2′ = not defined here; Aib = CC(C)(N)C(=O)O
Reply with just the number (in pM).

Known Primary assay EC50 (cAMP), n2 results, listed for orientation:
H[Aib]EGS[αMeF]TSDVSK([PEG2′-PEG2′-γGlu-Palmitoyl])YLEGEAAEEFIK([PEG2′-PEG2′-γGlu-Palmitoyl])WVVEGG-NH2 [SEQ ID NO: 246]: 1800
H[Aib]EGS[αMeF]TSDK([PEG2′-PEG2′-γGlu-Lauroyl])SSYLEGEAA[αMeK]EFIAK([PEG2′-PEG2′-γGlu-Lauroyl])VVEGG-NH2 [SEQ ID NO: 257]: 12.4
H[Aib]EGTFTSDVSK([PEG2′-PEG2′-γGlu-Palmitoyl])FLEGEAAEEFIK([PEG2′-PEG2′-γGlu-Palmitoyl])WVVEGG-NH2 [SEQ ID NO: 243]: 3480

Next item in the queue.
In: # lookup: Primary assay EC50 (cAMP), n2 of H[Aib]EGTFTSDVSK([PEG2′-PEG2′-γGlu-Lauroyl])YLEGEAAEEFIK([PEG2′-PEG2′-γGlu-Lauroyl])FVVEGG-NH2 [SEQ ID NO: 238]
Out: 13.2
